- measurement_target: human ALK5 (Homo sapiens)
- Sequence (P36897 162-503): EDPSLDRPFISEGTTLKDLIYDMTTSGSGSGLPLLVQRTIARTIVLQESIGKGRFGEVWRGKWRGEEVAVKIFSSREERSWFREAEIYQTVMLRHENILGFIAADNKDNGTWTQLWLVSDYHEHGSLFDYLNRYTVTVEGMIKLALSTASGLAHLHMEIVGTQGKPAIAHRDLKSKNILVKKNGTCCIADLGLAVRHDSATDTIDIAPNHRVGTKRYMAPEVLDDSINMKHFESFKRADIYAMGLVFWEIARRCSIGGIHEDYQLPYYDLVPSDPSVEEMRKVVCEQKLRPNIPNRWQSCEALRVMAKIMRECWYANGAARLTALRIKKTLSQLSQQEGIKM
- method_description: ALK5 Enzyme Assay 1
- Assay type: biochemical
- Parameters: 6His tagged ALK5 protein (amino acids 162-503) expressed in insect cells; 6His; made in house; host or cells: insect cells
- test_context: read-out: EAA: activity (μM) using Enzyme Assay 1
I'd appreciate it if you marked entries True when IC50 is lower than 0.02 µM and False when it is not.

# compound, group
rows = [
    ("COc1cc(Nc2cc(Oc3ccc(C)nc3-c3cccc(Cl)c3)ccn2)cc(OC)c1OC [Example 55]", "True"),
    ("COc1cc(Nc2cc(Oc3ccc(C)nc3-c3cscc3C)ccn2)cc(OC)c1OC [Example 46]", "True"),
    ("COc1ccc(S(C)(=O)=O)cc1Nc1cc(Oc2cc(C)c(C)nc2-c2ccccn2)ccn1 [Example 17]", "True"),
    ("COc1ccc(NC(C)=O)cc1Nc1cc(Oc2cc(C)c(C)nc2-c2ccccn2)ccn1 [Example 73]", "False"),
    ("Cc1cc(Oc2ccnc(Nc3ccc(F)cc3)c2)c(-c2ccccn2)nc1C [Example 10]", "True"),
    ("COc1cc(Nc2cc(Oc3cccnc3-c3ccc(F)cc3)ccn2)cc(OC)c1OC [Example 52]", "True"),
    ("COc1cc(Nc2cc(Oc3cccnc3-c3ccccc3)ccn2)cc(OC)c1OC [Example 49]", "True"),
    ("Cc1cc(Oc2ccnc(Nc3ccc(F)cc3F)c2)c(-c2ccccn2)nc1C [Example 37]", "False"),
    ("COc1cc(Nc2cc(Oc3ccc(C)nc3-c3ccnc4ccccc34)ccn2)cc(OC)c1OC [Example 170]", "False"),
]
